Assay Protocol: Clearance in rat at 5 mg/kg, po
Type: ADME, organism-based
Condition Notes: in vivo
Reported Endpoint: CL/F (mL/min/kg)
Give the number; mL/min/kg is assumed, so skip it.

For the molecule `c1cc(CNc2cc3c(cn2)[nH]c2ccccc23)cc(Oc2ccc3c(c2)OCO3)c1` , give its reported CL/F. 84.3

* * *

Assay Protocol: Half life in rat at 5 mg/kg, iv
Format: ADME, organism-based
Condition Notes: in vivo
Reported Endpoint: half-life (min)
Give the number; min is assumed, so skip it.

For the compound `c1cc(CNc2cc3c(cn2)[nH]c2ccccc23)cc(Oc2ccc3c(c2)OCO3)c1` , give its reported half-life. 214
